meta.source: the CombiSolv-Exp solvation set (Vermeire and Green 2021)

ASSAY TEXT: solvent given as SMILES
PARTICULARS: in CCCCCCCCC=CCCCCCCCC(=O)OCC(COC(=O)CCCCCCCC=CCCCCCCCC)OC(=O)CCCCCCCC=CCCCCCCCC
Please mark criterion met if the recorded solvation free energy, 298 K is equal to or greater than -4 kcal/mol, and criterion not met if it falls below.

> print(dat)
                           query.smiles     category.label
 1         c1ccc2c(c1)-c1cccc3cccc-2c13  criterion not met
 2               O=c1c2ccccc2sc2ccccc12  criterion not met
 3                             C1CCCCC1      criterion met
 4                 c1cc2c3c(cccc3c1)CC2  criterion not met
 5                                ClCCl      criterion met
 6                            CCC(=O)CC  criterion not met
 7           O=C(C(=O)c1ccccc1)c1ccccc1  criterion not met
 8         c1ccc2c(c1)ccc1c3ccccc3ccc21  criterion not met
 9           Clc1c(Cl)c(Cl)c2ccccc2c1Cl  criterion not met
10  ClC(Cl)=C(c1ccc(Cl)cc1)c1ccc(Cl)cc1  criterion not met
11                             COC(C)=O      criterion met
12                  CCCCCCCCCCCCCCCCCCO  criterion not met
13                          CCCCOC(C)=O  criterion not met
14         Brc1c(Br)c(Br)c(Br)c(Br)c1Br  criterion not met
15                c1ccc2c(c1)sc1ccccc12  criterion not met

###

ASSAY TEXT: solvent given as SMILES
PARTICULARS: in CCC(C)(C)O
Please mark yes if the recorded solvation free energy, 298 K is equal to or greater than -10 kcal/mol, and no if it falls below.

> print(dat)
                   query.smiles  category.label
1                         C=CCC             yes
2        c1ccc2c(c1)Cc1ccccc1O2             yes
3                           COC             yes
4    O=C(C(=O)c1ccccc1)c1ccccc1              no
5  c1ccc2c(c1)-c1cccc3cccc-2c13              no
6          c1cc2c3c(cccc3c1)CC2             yes

###

ASSAY TEXT: solvent given as SMILES
PARTICULARS: in CC#N
MEASURED METRIC: solvation free energy, 298 K (kcal/mol)

> print(dat)
                  query.smiles  numeric.value
 1                    C=CCCCCC          -3.44
 2                        CCCO          -4.84
 3                  Cc1ccccc1C          -5.37
 4                       O=S=O          -3.25
 5  O=[N+]([O-])c1cc(Cl)ccc1Cl          -9.34
 6                     CCC(C)C           -1.9
 7                      CCCCCO          -5.85
 8             FS(F)(F)(F)(F)F           0.25
 9                    c1ccccc1          -4.25
10              CC(C)CC(C)(C)C          -3.11
11                CCCCc1ccccc1           -6.1
12                       ClCCl          -3.99
13                    C1CCCCC1          -3.03
14                     C1CCCC1          -2.52

###

ASSAY TEXT: solvent given as SMILES
PARTICULARS: in C=CCCCCCCCCCCCCCC
Lab note: compare solvation free energy, 298 K with -4 kcal/mol, writing True if less and False if equal or more.

> print(dat)
           query.smiles  category.label
 1             C=CCCCCC            True
 2          CC(C)CC(C)C           False
 3               C=CCCC           False
 4             c1ccccc1           False
 5               CCCC#N           False
 6              CCC=CCC           False
 7  O=C(O)c1ccc(CCl)cc1            True
 8                CCC=O           False
 9               CCCC=O           False
10                COC=O           False
11    Cc1ccc(C(=O)O)cc1            True

###

solvation free energy, 298 K overview
ASSAY TEXT: solvent given as SMILES
PARTICULARS: in CCC(C)O
MEASURED METRIC: solvation free energy, 298 K

> print(dat)
                                    compound          result
 1                    c1ccc2c(c1)Cc1ccccc1O2  -9.33 kcal/mol
 2            O=C1c2ccccc2C(=O)c2c(Cl)cccc21  -12.7 kcal/mol
 3                   O=C(Oc1ccccc1)c1ccccc1O  -12.5 kcal/mol
 4                                       C=C  -0.44 kcal/mol
 5  CCC(C)(C)C(=O)OC1CC(C)C=C2C=CC(C)C(CCC3CC(O)CC(=O)O3)C21 (configuration not stated)  -25.1 kcal/mol
 6                        COC(=O)c1ccc(O)cc1  -12.2 kcal/mol
 7                    c1ccc2c(c1)Nc1ccccc1S2  -12.8 kcal/mol
 8                                    CCCC#N  -4.57 kcal/mol
 9                                  [2H][2H]   1.54 kcal/mol
10                           Cc1ccccc1C(=O)O  -9.01 kcal/mol
11                                       COC   -2.1 kcal/mol
12              c1ccc2c(c1)-c1cccc3cccc-2c13  -11.2 kcal/mol
13                                     C=CCC  -1.99 kcal/mol
14                               CC(C)OC(C)C  -3.75 kcal/mol
15                      O=C(O)CCCCCCCCC(=O)O    -17 kcal/mol
16  O=C(O)c1cc([N+](=O)[O-])cc([N+](=O)[O-])c1  -13.9 kcal/mol
17                                Clc1ccccc1  -5.09 kcal/mol
18                                  C1CCCCC1  -3.64 kcal/mol
19                        CC(=O)Nc1ccc(O)cc1  -15.8 kcal/mol
20              O=C(O)c1ccc([N+](=O)[O-])cc1  -12.1 kcal/mol
21                     CC(=O)Oc1ccccc1C(=O)O  -13.5 kcal/mol
22                                   CC(C)CO  -5.95 kcal/mol
23                    O=C(O)c1cccc(C(=O)O)c1  -13.3 kcal/mol
24                        O=C(O)c1cccc(Cl)c1  -10.6 kcal/mol
25                    O=c1c2ccccc2sc2ccccc12  -11.8 kcal/mol
26  CC(C)Cc1ccc(C(C)C(=O)O)cc1 (configuration not stated)  -13.2 kcal/mol
27                                  c1ccccc1  -3.78 kcal/mol
28                O=C(C(=O)c1ccccc1)c1ccccc1  -10.9 kcal/mol
29                 O=[N+]([O-])c1ccc(CCl)cc1  -8.28 kcal/mol
30                           FS(F)(F)(F)(F)F   0.26 kcal/mol
31                      c1cc2c3c(cccc3c1)CC2  -8.46 kcal/mol
32                                     O=C=O  -0.33 kcal/mol
33                                       O=O   0.91 kcal/mol
34           COc1cc(Cc2cnc(N)nc2N)cc(OC)c1OC  -19.4 kcal/mol
35                   CN(C)C(=O)Nc1ccc(Cl)cc1  -13.1 kcal/mol
36                                   CCCOCCC  -4.15 kcal/mol
37                O=[N+]([O-])c1cc(Cl)ccc1Cl  -7.92 kcal/mol
